All figures here come from patent US4743585A.

Target: renin (Homo sapiens, UniProt P00797)
Sequence (P00797 67-406): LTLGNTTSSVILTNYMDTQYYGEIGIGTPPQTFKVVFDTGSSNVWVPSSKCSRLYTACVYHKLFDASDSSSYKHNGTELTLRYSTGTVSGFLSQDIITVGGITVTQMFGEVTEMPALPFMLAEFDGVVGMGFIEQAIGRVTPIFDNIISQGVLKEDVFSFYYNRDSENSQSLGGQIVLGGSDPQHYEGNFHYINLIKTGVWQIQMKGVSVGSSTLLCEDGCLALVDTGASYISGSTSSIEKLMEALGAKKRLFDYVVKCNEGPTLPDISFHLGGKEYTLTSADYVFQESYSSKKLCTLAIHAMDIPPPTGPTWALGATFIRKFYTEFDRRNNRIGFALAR
REPORTED_PROPERTY: IC50 (µM)

MOLECULE	REPORTED_PROPERTY	TEST_RESULT
CC(C)CC(=O)N[C@@H](Cc1ccccc1)C(=O)N[C@@H](Cc1c[nH]cn1)C(=O)N[C@H](CN[C@@H](CC(C)C)C(=O)NCc1ccccc1)CC(C)C [Example 65]	IC50	7.7
CC(C)CC(=O)NC(Cc1ccccc1)C[S+]([O-])C(Cc1ccccc1)C(=O)NC(CC(C)C)C(O)CC(=O)NC(C)C(=O)NC(CC(C)C)C(O)CC(=O)NCc1ccccc1 (stereo not shown) [Example 40]	IC50	2
CC(C)C[C@H](NC(=O)C[C@H](O)[C@H](CC1CCCCC1)NC(=O)CCC[C@H](Cc1ccccc1)NC(=O)OC(C)(C)C)C(=O)NCc1cccc(CN)c1 [Example 36]	IC50	63
CC(C)CC(=O)N[C@@H](Cc1ccccc1)C(=O)N[C@@H](Cc1c[nH]cn1)C(=O)N[C@@H](CC(C)C)[C@@H](O)CC(=O)N[C@@H](CC(C)C)CN(Cc1ccccc1)C(=O)OCc1ccccc1 [Example 57]	IC50	3
